- System: U-2932
- procedure-summary: growth inhibition by drug plus 177Lu-lilotomab satetraxetan (1 - RLU/untreated control) (fraction); higher = stronger inhibition
- stated-conditions: 1000 nM; time (day): 3; 177Lu-lilotomab satetraxetan 1 ug/ml
readout-kind: growth inhibition by drug plus 177Lu-lilotomab satetraxetan
Lab note: record just the number, no unit beside it.

molecule	numeric-value
COc1c(C)c2c(c(O)c1C/C=C(\C)CCC(=O)OCCN1CCOCC1)C(=O)OC2 [Mycophenolate mofetil (CellCept)]	0.826
Nc1nc(N)c(N=O)c(OCC2CCCCC2)n1	-0.0976

Prompt: Give the reported growth inhibition by drug plus 177Lu-lilotomab satetraxetan for O=C(Nc1cccnc1)N1CCC(Cc2cccc(Oc3ccc(C(F)(F)F)cn3)c2)CC1 (system: U-2932).
Response: 0.299

Prompt: Same read-out for O=C(O)CCCc1ccccc1 [4-Phenylbutyrate] ?
Response: 0.0377

Prompt: Same read-out for COC(=O)c1ccc2c(C(=Nc3ccc(N(C)C(=O)CN4CCN(C)CC4)cc3)c3ccccc3)c(O)[nH]c2c1 ?
Response: -0.172

Prompt: Same read-out for O=C(NOC[C@H](O)CO)c1ccc(F)c(F)c1Nc1ccc(I)cc1F ?
Response: 0.162

Prompt: Same read-out for COc1ccc(C2CC(c3ccccc3)=NN2c2ccc(S(N)(=O)=O)cc2)cc1 (configuration not stated) ?
Response: -0.0784

Prompt: Same read-out for COc1cc2c(cc1OC)CN(CCc1ccc(NC(=O)c3cccc4c(=O)c5cccc(OC)c5[nH]c34)cc1)CC2 ?
Response: 0.0477

Prompt: Same read-out for O=NN(CCCl)C(=O)NC1CCCCC1 ?
Response: -0.00262

---

- Tested on: U-2932
- procedure-summary: growth inhibition by drug alone (1 - RLU/untreated control) (fraction); higher = stronger inhibition
- stated-conditions: 10 nM; time (day): 6; 177Lu-lilotomab satetraxetan 0 ug/ml
Where growth inhibition by drug alone equals or exceeds -0.1, the correct label is fulfilled; where it does not, the label is not fulfilled.

Observe how each entry below is paired with its result.
>>> print(df.to_string())
                                   molecule  tested_target            cat
0  N#CC(c1ccnc(NCCc2cccnc2)n1)c1nc2ccccc2s1 (stereo not given)         U-2932      fulfilled
1  CNC(=O)[C@@H](NC(=O)[C@H](CC(C)C)[C@H](O)C(=O)NO)C(C)(C)C         U-2932  not fulfilled
2  COc1cc2nc(N3CCCN(C)CC3)nc(NC3CCN(Cc4ccccc4)CC3)c2cc1OC         U-2932      fulfilled
3  COC(=O)Nc1ccc(-c2nc(N3CCOCC3)c3cnn(C4CCN(C(=O)OC)CC4)c3n2)cc1         U-2932      fulfilled

--- query ---
Prompt: Does the reported growth inhibition by drug alone for O=C(O)c1ccc(-c2c[nH]c3ncc(-c4ccccc4)cc23)cc1C1CCCC1 fall at or above the -0.1 mark?
Response: not fulfilled

---

- Test system: U-2932
- procedure-summary: growth inhibition by drug alone (1 - RLU/untreated control) (fraction); higher = stronger inhibition
- stated-conditions: 10 nM; time (day): 3; 177Lu-lilotomab satetraxetan 0 ug/ml
readout-kind: growth inhibition by drug alone
Lab note: record just the number, no unit beside it.

>>> df
                                   molecule  numeric_value
0             Nc1nc(N)c(N=O)c(OCC2CCCCC2)n1         -0.102
1  CC(=O)O[C@]1(C(C)=O)CC[C@H]2[C@@H]3C=C(C)C4=CC(=O)CC[C@]4(C)[C@H]3CC[C@@]21C [Megestrol Acetate]          0.119
2  COc1ccc(C2=N[C@@H](c3ccc(Cl)cc3)[C@@H](c3ccc(Cl)cc3)N2C(=O)N2CCNC(=O)C2)c(OC(C)C)c1 [Nutlin-3]          -0.04
3  CS(=O)(=O)N1CCN(Cc2cc3nc(-c4cccc5[nH]ncc45)nc(N4CCOCC4)c3s2)CC1        -0.0712

Proceeding to the next molecule to report its growth inhibition by drug alone.
Prompt: // lookup growth inhibition by drug alone for NC(=O)Nc1cc(-c2cccc(F)c2)sc1C(=O)N[C@H]1CCCNC1
Response: 0.0534

These measurements were taken from the supplement of paper PMC6897291.
